Catalogue of AC50 values
# experimental-system: human PAH with the R408W mutation (Homo sapiens, UniProt P00439, R408W)
# Construct: expressed in transfected cells
# Sequence (P00439 whole entry R408W): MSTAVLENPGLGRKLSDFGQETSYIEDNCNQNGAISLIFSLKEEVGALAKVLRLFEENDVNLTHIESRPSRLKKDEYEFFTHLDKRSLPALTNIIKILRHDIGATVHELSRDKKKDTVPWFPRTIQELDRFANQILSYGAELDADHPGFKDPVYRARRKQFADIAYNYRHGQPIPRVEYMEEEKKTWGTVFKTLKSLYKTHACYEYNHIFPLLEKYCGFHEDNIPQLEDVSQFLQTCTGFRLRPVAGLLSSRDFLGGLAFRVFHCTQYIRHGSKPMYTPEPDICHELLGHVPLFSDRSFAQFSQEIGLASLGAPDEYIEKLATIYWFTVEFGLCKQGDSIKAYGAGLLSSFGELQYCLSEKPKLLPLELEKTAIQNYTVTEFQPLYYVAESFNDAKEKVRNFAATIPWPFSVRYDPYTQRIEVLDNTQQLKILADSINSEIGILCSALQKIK
# assay-explanation: Cell Based Phenylalanine Flux Assay
# study-conditions: A375 R408W cells, 24 hrs with compound, then 20 μM sepiapterin and 800 μM 13C9,15N-Phenylalanine for 4 hours; 13C-Tyrosine by LC-MS; average where tested multiple times; read-out: AC50

Field: example entries. Status: answers known.
Query :: Record lookup: for human PAH with the R408W mutation (Homo sapiens, UniProt P00439, R408W), what AC50 belongs to O=C(c1nnc(-c2ccccn2)o1)N1CCCc2[nH]cnc2C1c1ccc2ccccc2n1 (stereo not drawn) ?
Result :: > 5 µM

Query :: Find AC50 (human PAH with the R408W mutation (Homo sapiens, UniProt P00439, R408W)) for the entry CC(C)(O)c1nnc(C(=O)N2CCc3[nH]cnc3C2c2ncc3ccccc3n2)o1 (stereo not drawn)
Result :: > 5 µM

Query :: Request body: readout AC50, system human PAH with the R408W mutation (Homo sapiens, UniProt P00439, R408W), query O=C(c1nc2ccccc2s1)N1CCc2[nH]cnc2C1c1ccc2ccccc2c1 (stereo not drawn) . Return the value.
Result :: > 5 µM

Query :: Requested read-out AC50, target or system human PAH with the R408W mutation (Homo sapiens, UniProt P00439, R408W), entry Cc1nc(C(C)(C)S(C)(=O)=O)oc1C(=O)N1CCc2[nH]cnc2C1c1ccc2ccccc2n1 (stereo not drawn)
Result :: 1 to 5 µM

New cases:
Query :: Form entry - test system: human PAH with the R408W mutation (Homo sapiens, UniProt P00439, R408W); read-out: AC50; compound: O=C(C1CN(c2ccccn2)C1)N1CCc2[nH]cnc2C1c1ccc2ccccc2n1 (stereo not drawn)
Result :: 1 to 5 µM

Query :: Reported AC50 for human PAH with the R408W mutation (Homo sapiens, UniProt P00439, R408W), given CC1CN(C(=O)c2nnc(N3CC(F)C3)o2)C(c2cc3ccccc3cn2)c2nc[nH]c21 (stereo not drawn) ?
Result :: > 5 µM

Query :: Write down the reported AC50 of C[C@@H](O)c1nnc(C(=O)N2CCc3[nH]cnc3[C@H]2c2cc3ccccc3nn2)o1 (single isomer, unassigned) , test system: human PAH with the R408W mutation (Homo sapiens, UniProt P00439, R408W).
Result :: > 5 µM

Query :: Missing value: AC50, human PAH with the R408W mutation (Homo sapiens, UniProt P00439, R408W), entry Cc1ncoc1C(=O)N1CC(C)c2[nH]cnc2C1c1cc2ccccc2cn1 (stereo not drawn) . Fill in?
Result :: > 5 µM
